# ASSAY_TARGET: T1, CAPRIN-1 protein expressed on the membrane surface of human cancer cells (human, UniProt Q14444 2-709)
# T1 sequence (looked up): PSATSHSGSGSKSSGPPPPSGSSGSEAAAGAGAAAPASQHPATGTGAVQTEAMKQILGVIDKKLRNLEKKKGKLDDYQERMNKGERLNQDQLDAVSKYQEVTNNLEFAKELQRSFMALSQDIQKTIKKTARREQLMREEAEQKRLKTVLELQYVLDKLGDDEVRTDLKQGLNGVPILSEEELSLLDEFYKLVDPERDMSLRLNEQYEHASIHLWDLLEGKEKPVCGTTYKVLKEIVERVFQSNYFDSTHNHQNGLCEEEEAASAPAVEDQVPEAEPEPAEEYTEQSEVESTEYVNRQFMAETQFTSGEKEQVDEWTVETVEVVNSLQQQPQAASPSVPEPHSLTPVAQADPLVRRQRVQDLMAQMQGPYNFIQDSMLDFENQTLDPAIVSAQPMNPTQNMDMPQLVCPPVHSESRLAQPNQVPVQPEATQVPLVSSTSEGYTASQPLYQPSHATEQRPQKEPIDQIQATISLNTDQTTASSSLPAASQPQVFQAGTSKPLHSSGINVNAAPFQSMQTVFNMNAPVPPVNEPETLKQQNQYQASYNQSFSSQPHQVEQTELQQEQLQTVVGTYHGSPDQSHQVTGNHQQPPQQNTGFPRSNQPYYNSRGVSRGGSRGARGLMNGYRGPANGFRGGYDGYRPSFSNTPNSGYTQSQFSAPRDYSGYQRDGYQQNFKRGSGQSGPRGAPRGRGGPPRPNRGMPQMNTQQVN
# ASSAY_OVERVIEW: cell-based or functional assay
ENDPOINT_LABEL: ADCC cytotoxic activity (51Cr release) on U-87MG

• humanized antibody #3 (antibody, V domains shown) VH: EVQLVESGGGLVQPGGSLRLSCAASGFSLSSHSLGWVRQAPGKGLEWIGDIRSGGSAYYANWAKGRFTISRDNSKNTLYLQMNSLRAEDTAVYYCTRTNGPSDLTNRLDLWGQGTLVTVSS VL: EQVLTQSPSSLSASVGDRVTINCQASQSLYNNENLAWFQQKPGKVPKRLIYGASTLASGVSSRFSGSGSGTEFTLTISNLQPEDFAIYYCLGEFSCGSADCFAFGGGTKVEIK = ≥ 29%
• humanized antibody #0 (antibody, V domains shown) VH: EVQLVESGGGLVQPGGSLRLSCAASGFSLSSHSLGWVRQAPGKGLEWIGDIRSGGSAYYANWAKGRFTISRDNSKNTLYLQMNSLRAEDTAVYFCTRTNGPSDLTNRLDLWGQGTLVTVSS VL: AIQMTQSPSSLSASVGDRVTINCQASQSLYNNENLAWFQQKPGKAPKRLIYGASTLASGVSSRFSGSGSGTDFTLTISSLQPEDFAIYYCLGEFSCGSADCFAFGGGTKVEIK = ≥ 24%
• humanized antibody #4 (antibody, V domains shown) VH: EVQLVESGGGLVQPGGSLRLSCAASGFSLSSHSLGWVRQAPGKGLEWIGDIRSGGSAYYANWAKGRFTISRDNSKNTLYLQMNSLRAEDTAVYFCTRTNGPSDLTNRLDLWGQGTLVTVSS VL: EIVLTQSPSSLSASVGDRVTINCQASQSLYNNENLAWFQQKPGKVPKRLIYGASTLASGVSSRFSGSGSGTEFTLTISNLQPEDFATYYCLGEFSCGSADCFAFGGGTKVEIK = ≥ 29%
